# experimentNotes: Half-life time of enzymatic breakdown in mouse liver.
# Format: ADME
Reported half-life values follow for various compounds

{"columns": ["smilesRecord", "unitAnnotation", "half-life"],
 "data": [
  ["C[C@@H](NC(=O)[C@@H](N)Cc1ccc(O)cc1)C(=O)N[C@@H](Cc1ccccc1)C(=O)NCC(=O)N[C@@H](Cc1ccc(O)cc1)C(=O)N1CCC[C@H]1C(=O)N[C@@H](CO)C(=O)OC[C@H]1O[C@H](O)[C@H](O)[C@@H](O)[C@@H]1O", "h", 0.5],
  ["CC(=O)O[C@H]1[C@H](O)[C@@H](O)[C@@H](O)O[C@@H]1COC(=O)[C@H](CO)NC(=O)[C@@H]1CCCN1C(=O)[C@H](Cc1ccc(O)cc1)NC(=O)CNC(=O)[C@H](Cc1ccccc1)NC(=O)[C@@H](C)NC(=O)[C@@H](N)Cc1ccc(O)cc1", "h", 1],
  ["CC(C)[C@H](NC(=O)[C@H](CC(=O)O)NC(=O)[C@H](Cc1ccccc1)NC(=O)[C@@H](C)NC(=O)[C@@H](N)Cc1ccc(O)cc1)C(=O)N[C@H](C(=O)NCC(N)=O)C(C)C", "h", 1.83]
]}

Values compiled from ChEMBL document CHEMBL1132565.
